testSystem: Cytochrome P450 2C19 (Homo sapiens) (UniProt P33261)
Sequence (P33261 whole entry, looked up): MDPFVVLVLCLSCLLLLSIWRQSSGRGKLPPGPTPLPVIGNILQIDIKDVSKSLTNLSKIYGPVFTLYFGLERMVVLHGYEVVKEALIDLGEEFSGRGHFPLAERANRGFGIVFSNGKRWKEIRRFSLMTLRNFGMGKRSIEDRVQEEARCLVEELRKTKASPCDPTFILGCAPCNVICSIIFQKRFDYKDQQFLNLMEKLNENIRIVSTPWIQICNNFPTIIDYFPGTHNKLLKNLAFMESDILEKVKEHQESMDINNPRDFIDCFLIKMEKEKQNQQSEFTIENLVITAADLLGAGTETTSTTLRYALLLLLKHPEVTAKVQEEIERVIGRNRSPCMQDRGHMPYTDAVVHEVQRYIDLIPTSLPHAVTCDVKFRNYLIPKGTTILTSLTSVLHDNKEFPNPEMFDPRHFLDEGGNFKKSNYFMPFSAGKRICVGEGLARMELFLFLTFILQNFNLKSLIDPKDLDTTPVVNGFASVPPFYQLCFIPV
protocol: blockers of cytochrome P450 2C19 activity – biochemical, luminescence, ADME assay, primary screen (AID 778);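 also: plate controls were negative control wells for no effect and 2.5 mM tranylcypromine positive control for full effect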
appliedConditions: CYP2C19 Supersomes, luciferin-H EGE luminescence, 30 min; at 5 µM; hits give high values
Screen size: about 96,000 compounds; about 20,000 (21%) were called active. These entries were drawn from the full list.
attributeMeasured: inhibition

[
  {
    "compound": "O=C(O)c1cc(S(=O)(=O)N2CCCCCC2)c(Cl)cc1Cl",
    "testSystem": "Cytochrome P450 2C19 (Homo sapiens) (UniProt P33261)",
    "inhibition": "0% (inactive)"
  },
  {
    "compound": "O=C(NCN1CCN(CCO)CC1)c1cnccn1",
    "testSystem": "Cytochrome P450 2C19 (Homo sapiens) (UniProt P33261)",
    "inhibition": "-8.6% (inactive)"
  },
  {
    "compound": "Cc1ccc(-n2nc3c(c2NC(=O)c2ccc4c(c2)OCO4)CSC3)c(C)c1",
    "testSystem": "Cytochrome P450 2C19 (Homo sapiens) (UniProt P33261)",
    "inhibition": "3.6% (inactive)"
  }
]

Query: For the compound `O=C(N/N=C\c1cccc(Br)c1)c1ccccc1-n1cccc1` , give its measured inhibition value.
Response: 73.3% (active)

Query: Return inhibition for the following compound: `N#CCCN1CCN(S(=O)(=O)c2ccc(S(=O)(=O)NC3CC3)cc2)CC1`
Response: -21.3% (inactive)

Query: # return recorded inhibition for input COc1cc(C(=O)N(Cc2ccc(N(C)C)cc2)C2CCS(=O)(=O)C2)cc(OC)c1OC (stereo not given)
Response: 19% (inactive)

Query: Fill in inhibition for record `CC(=O)Oc1ccc(C(=O)Nc2nccs2)cc1`
Response: 16.7% (inactive)

Query: Given the compound `Cn1c(=O)n(C)c2cc(C(=O)Nc3ccc4c(c3)OCO4)ccc21` , write its reported inhibition.
Response: -13.9% (inactive)

* * *

testSystem: Cytochrome P450 2C19 (Homo sapiens)
protocol: blockers of cytochrome P450 2C19 activity – biochemical, luminescence, ADME assay, primary screen (AID 778);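 also: plate controls were negative control wells for no effect and 2.5 mM tranylcypromine positive control for full effect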
appliedConditions: CYP2C19 Supersomes, luciferin-H EGE luminescence, 30 min; at 5 µM
Out of some 96,000 compounds screened, about 20,000 (21%) were called active.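 How the source made its calls: active means CYP2C19 inhibition above a set limit at 5 µM in the primary screen (cut at about 50% in these data); inactive means the rest.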 A selection follows.
# output must be one of True = active, False = inactive

Solved cases (5 shown):
[
  {
    "molecule": "Cc1ccccc1OCC(=O)Nc1ccc(N2CCN(C(=O)C(C)C)CC2)c(Cl)c1",
    "classification": "False"
  },
  {
    "molecule": "O=C(Cc1cccc2ccccc12)Nc1ccc2oc(-c3ccccc3)nc2c1",
    "classification": "False"
  },
  {
    "molecule": "COc1cc(C2C(C#N)=C(C)NC3=C2C(=O)CC(C)(C)C3)ccc1O (configuration not stated)",
    "classification": "False"
  },
  {
    "molecule": "Cc1ccc2cc(CCNC(=O)c3c(-c4ccccc4Cl)noc3C)c(=O)[nH]c2c1",
    "classification": "False"
  },
  {
    "molecule": "NC(=O)c1ncc(C(F)(F)F)cc1Oc1ccc(F)cc1",
    "classification": "False"
  }
]

Query: Could you kindly confirm the outcome this assay logged for O=C1c2ccccc2C(=O)N1CCC(c1ccccc1)c1ccco1 (configuration not stated) ?
Response: False

Query: Test call, this molecule: CCOC(=O)C1=C(C)NC2=C(C(=O)CC(C)(C)C2)C1c1ccsc1 (configuration not stated)
Response: True

Query: GET /call?item= CCCCSc1nc2c(c(=O)n1CC)SC(C)C2 (configuration not stated) returns the recorded outcome of this test.
Response: False

Query: What did the test return for CCCOC(=O)C1=C(C)NC2=C(C(=O)C(C(=O)OC)C(C)C2)C1c1ccc(N(C)C)cc1 (configuration not stated) ?
Response: False

Query: For this molecule, state the assay outcome: `CCCCCC(=O)Nc1ccc2oc(-c3ccncc3)nc2c1`
Response: True

Query: Recorded call for `Cc1ccc(NC(=O)COc2ccc(-n3ccnc3)cc2)cc1Cl` ?
Response: True

Query: Hi, sorry to bother you, what did the test record for `O=C(CSc1nnc(-c2ccccn2)n1-c1ccccc1)Nc1ccc2c(c1)OCO2` ?
Response: False

All values here come from PubChem BioAssay AID778.
